The following variants are listed with their measured abundance fitness values.
B1: GA-binding protein alpha chain, residues 172 to 250; numbered along this chain, Q06546 (parent)
chain: GYRKEQERLGIPYDPIQWSTDQVLHWVVWVMKEFSMTDIDLTTLNISGRELCSLNQEDFFQRVPRGEILWSHLELLRKY

Variants of: B1
measurement notes: abundance fitness (aPCA) (normalised: wild type 0, dead -1); higher = more abundant; growth selection in yeast, the domain comes from the species named
run parameters: Homo sapiens

variant identifier	abundance fitness
K32F	-0.41
V30I	-0.099
I11A	-0.651
T37W	-0.115
E50C	-0.088
D14K	-0.793
Y13M	0.012
H25P	-0.942
R65A	-0.003
Q17H	0.085
G10T	-0.411
